# experimental.details: particle size distribution by dynamic light scattering (Zetasizer Nano ZS)
# Type: physicochemical
# conditions.used: O/W emulsion cationic lipid:DOPE:Cholesterol=3:4:3, 4-Methylumbelliferon 10 mol %, DMG-PEG2000 10 mol %, DSG-PEG2000 2.5 mol %; 1 mM, 25° C.
measured.metric: volume median diameter (nm)

{"molecule": "CCCCCCCC/C=C\\CCCCCCCC(=O)OCCCN(C)CCSSCCN(C)CCCOC(=O)CCCCCCC/C=C\\CCCCCCCC", "measured.metric": "volume median diameter", "unit.abbrev": "nm", "meas.value": 38.4}
{"molecule": "Cc1c(C)c2c(c(C)c1OC(=O)CCC(=O)OCCCN(C)CCSSCCN(C)CCCOC(=O)CCC(=O)Oc1c(C)c(C)c3c(c1C)CCC(C)(CCCC(C)CCCC(C)CCCC(C)C)O3)CCC(C)(CCCC(C)CCCC(C)CCCC(C)C)O2 (stereo not drawn)", "measured.metric": "volume median diameter", "unit.abbrev": "nm", "meas.value": 41.2}
{"molecule": "Cc1c(C)c2c(c(C)c1OC(=O)CCC(=O)OCCC1CCN(CCSSCCN3CCC(CCOC(=O)CCC(=O)Oc4c(C)c(C)c5c(c4C)CCC(C)(CCCC(C)CCCC(C)CCCC(C)C)O5)CC3)CC1)CCC(C)(CCCC(C)CCCC(C)CCCC(C)C)O2 (stereo not drawn)", "measured.metric": "volume median diameter", "unit.abbrev": "nm", "meas.value": 87.9}
{"molecule": "CCCCCCCCCCCCCC(=O)OCCCN(C)CCSSCCN(C)CCCOC(=O)CCCCCCCCCCCCC", "measured.metric": "volume median diameter", "unit.abbrev": "nm", "meas.value": 37.6}

[P] CCCCC/C=C\C/C=C\CCCCCCCC(=O)OCCCN(C)CCSSCCN(C)CCCOC(=O)CCCCCCC/C=C\C/C=C\CCCCC
[Q] CCCCC/C=C\C/C=C\CCCCCCCC(=O)OCCN1CCN(CCSSCCN2CCN(CCOC(=O)CCCCCCC/C=C\C/C=C\CCCCC)CC2)CC1
**Query** For P and Q , which recorded volume median diameter is lower? Indicate which entry you chose by stating its label.
**Result** P
